# ASSAY_COMMENT: Pharmacokinetics in dog
# Type: in vivo, Beagle Dog
# CONDITION_INFO: male, beagle, plasma, iv, single i.v. dose of 2 mg/kg

COMPOUND: CC(C)C[C@@H](NCC(=O)O)C(=O)N1CCC[C@H]1C(=O)NCc1ccc(C(=N)N)cc1 [Compound of Formula (V)]
READING_UNIT: h
half-life: 11.8

---

# ASSAY_COMMENT: Solubility tests at different pH values
# Type: physicochemical
# CONDITION_INFO: aqueous buffer, thermodynamic from solid, pH 9.0, buffered salt solution, 37° C.
MEASUREMENT_LABEL: solubility at 1 h (µM)

MOLECULE: CCOC(=O)CN[C@H](CC(C)C)C(=O)N1CCC[C@H]1C(=O)NCc1ccc(C(N)=NC(=O)OCc2oc(=O)oc2C)cc1.Cl [Compound 1]
RECORDED_VALUE: 196
--
MOLECULE: CCOCCCOC(=O)N=C(N)c1ccc(CNC(=O)[C@@H]2CCCN2C(=O)[C@@H](CC(C)C)NCC(=O)OCC)cc1.Cl [Compound 10]
RECORDED_VALUE: 119
--
MOLECULE: CCCCCCOC(=O)N=C(N)c1ccc(CNC(=O)[C@@H]2CCCN2C(=O)[C@@H](CC(C)C)NCC(=O)OCC)cc1.Cl [Compound 17]
RECORDED_VALUE: 147

Attribution: patent US12209141B2
